The measurements presented in this section are drawn from paper PMC8953834.

experiment: Cytotoxicity (XTT) in Calu-3 cells; settings: human
metricName: CC50 at 3 days

Endpoint output: CC50 at 3 days of "Cc1c(C)c2c(c3c1CC[n+]1ccc(/C=C4\Sc5ccccc5N4C)cc1-3)-c1cccc(/C=C3\Sc4ccccc4N3C)[n+]1CC2" . Value?
> 50 µM

###

Quick list: CC50 per entry.
test: in vitro; conditions: pig

molecule	CC50
C[C@@]1(O)[C@H](O)[C@@H](CO)O[C@H]1n1ccc2c(N)ncnc21 [7-deaza-2′-CMA, 7-deaza-2′-C-methyladenosine, reference compound]	> 50 µM

# input for lookup
Endpoint output: CC50 of "Cc1c(C)c2c(c3c1CC[n+]1ccc(/C=C4\Sc5ccccc5N4C)cc1-3)-c1cccc(/C=C3\Sc4ccccc4N3C)[n+]1CC2" . Value?
> 50 µM

###

assay: Cytotoxicity (XTT) in Caco-2 cells; conditions: human
metricName: CC50 at 3 days

Endpoint output: CC50 at 3 days of "Cc1c(C)c2c(c3c1CC[n+]1ccc(/C=C4\Sc5ccccc5N4C)cc1-3)-c1cccc(/C=C3\Sc4ccccc4N3C)[n+]1CC2" . Value?
> 50 µM

###

molecular target: TBEV RdRp (Tick-borne encephalitis virus, UniProt Q01299)
Sequence (Q01299 2512-3414 limits assumed): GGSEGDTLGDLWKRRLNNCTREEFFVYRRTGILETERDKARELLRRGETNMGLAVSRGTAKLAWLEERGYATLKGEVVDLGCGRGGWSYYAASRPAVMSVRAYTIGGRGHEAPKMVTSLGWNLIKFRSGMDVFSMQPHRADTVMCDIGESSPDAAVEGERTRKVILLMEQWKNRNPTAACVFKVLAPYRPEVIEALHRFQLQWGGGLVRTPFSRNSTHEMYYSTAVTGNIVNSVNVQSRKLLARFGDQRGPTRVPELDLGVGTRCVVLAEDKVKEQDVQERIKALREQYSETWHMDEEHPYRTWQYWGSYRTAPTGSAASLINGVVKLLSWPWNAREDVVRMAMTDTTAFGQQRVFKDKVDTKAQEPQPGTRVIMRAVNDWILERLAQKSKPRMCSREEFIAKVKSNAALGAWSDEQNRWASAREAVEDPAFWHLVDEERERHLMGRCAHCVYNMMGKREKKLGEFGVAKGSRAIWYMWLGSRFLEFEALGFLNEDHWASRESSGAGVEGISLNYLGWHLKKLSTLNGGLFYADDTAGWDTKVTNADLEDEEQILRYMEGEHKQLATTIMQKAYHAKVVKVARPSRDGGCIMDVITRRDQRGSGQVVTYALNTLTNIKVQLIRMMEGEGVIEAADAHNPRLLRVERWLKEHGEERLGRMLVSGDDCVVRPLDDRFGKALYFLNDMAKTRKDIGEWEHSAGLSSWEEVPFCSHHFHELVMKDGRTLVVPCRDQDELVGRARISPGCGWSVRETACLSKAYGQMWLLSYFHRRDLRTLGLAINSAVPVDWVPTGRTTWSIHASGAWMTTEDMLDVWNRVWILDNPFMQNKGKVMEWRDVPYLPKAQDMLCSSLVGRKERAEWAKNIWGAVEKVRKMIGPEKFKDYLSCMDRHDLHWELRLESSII
metricName: pIC50
Scale explanation: pIC50 corresponds to minus log10 of a concentration expressed in moles per litre.

What measured pIC50 is associated with "Cc1c(C)c2c(c3c1CC[n+]1ccc(/C=C4\Sc5ccccc5N4C)cc1-3)-c1cccc(/C=C3\Sc4ccccc4N3C)[n+]1CC2" on TBEV RdRp (Tick-borne encephalitis virus, UniProt Q01299)?
5.44
